# FOB listing for each entry below
Target: T1, mouse SIRPα on cells (mouse, UniProt P97797 32-513)
T1 construct: whole, on cells
T1 sequence (looked up): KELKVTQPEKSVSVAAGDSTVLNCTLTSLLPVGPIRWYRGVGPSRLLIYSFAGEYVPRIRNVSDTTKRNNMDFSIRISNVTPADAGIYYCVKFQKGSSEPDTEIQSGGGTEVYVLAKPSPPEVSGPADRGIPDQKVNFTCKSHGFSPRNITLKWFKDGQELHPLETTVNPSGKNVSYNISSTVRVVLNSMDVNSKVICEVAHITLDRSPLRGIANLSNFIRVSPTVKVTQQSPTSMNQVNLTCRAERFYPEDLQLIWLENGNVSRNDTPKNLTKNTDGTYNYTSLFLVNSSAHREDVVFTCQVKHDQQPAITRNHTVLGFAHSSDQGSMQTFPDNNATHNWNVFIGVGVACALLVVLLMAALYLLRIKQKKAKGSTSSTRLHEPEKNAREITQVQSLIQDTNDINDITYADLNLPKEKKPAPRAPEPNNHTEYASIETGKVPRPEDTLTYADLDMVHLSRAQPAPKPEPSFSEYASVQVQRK
Test: flow cytometry;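 further: antibodies tested at 1 µg/ml for 30 min on ice against receptor-expressing cells, detected with a PE-labelled secondary antibody, read as mean fluorescence intensity relative to background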
Answer with a number only, understood to be in fold over background.

SB-49 (antibody, V domains shown, IgG) VH: QLQLQESGPGLVKPSETLSLTCTVSGGSISSSDYYWGWIRQPPGKGLEWIGSIYYSGSTYYNPSLKSRVTISVDTSKNQFSLKLSSVTAADTAVYYCARGPTGYKDKWRYYYGMDVWGQGTTVTVSS VL: DIQMTQSPSSLSASVGDRVTITCQASQDITNYLNWYQQKPGKAPKLLIYDASNLETGVPSRFSGSGSGTDFTFTISSLQPEDIATYYCQQYFHPPLTFGGGTKVEIK = 1.7
SB-41 (antibody, V domains shown, IgG) VH: QLQLQESGPGLVKPSETLSLTCTVSGGSISSSSYYWGWIRQPPGKGLEWIGSIYYSGSTYYNPSLKSRVTISVDTSKNQFSLKLSSVTAADTAVYYCARVGQYPIYGMDVWGQGTTVTVSS VL: DIQMTQSPSSLSASVGDRVTITCQASQDITNYLNWYQQKPGKAPKLLIYDASNLETGVPSRFSGSGSGTDFTFTISSLQPEDIATYYCQQADNFPYTFGGGTKVEIK = 1.7

Please find the next binder below.
Prompt line: Requested field: FOB. Item: SB-28 (antibody, V domains shown, IgG) VH: QLQLQESGPGLVKPSETLSLTCTVSGGSISSSSYYWGWIRQPPGKGLEWIGSISYSGSTYYNPSLKSRVTISVDTSKNQFSLKLSSVTAADTAVYYCARDPRDYSSGSSGGGWGYFDLWGRGTLVTVSS VL: EIVLTQSPGTLSLSPGERATLSCRASQSVSSSYLAWYQQKPGQAPRLLIYGASSRATGIPDRFSGSGSGTDFTLTISRLEPEDFAVYYCQQDGNFPLTFGGGTKVEIK
Response line: 1

Data origin, for the record: patent US20250026827A1
